Test system: bitter taste
Assay overview: Effect on bitter taste, intensity scale 0 to 10 (panelists)
Assay type: in vivo, human
Measurement conditions: 2 ppm in caffeine in water (0.05% by weight); scale 0 to 10, control anchored as 5
Bitter, average intensity score listing for selected molecules.
The reply should be a number, written without any unit.

Worked cases, answers included:
>  <Molecule>
Nc1nc2nc[nH]c2c(=O)[nH]1

>  <Experimental result>
6.50

$$$$
>  <Molecule>
Nc1nc2c(ncn2[C@@H]2O[C@H](CO)[C@@H](O)[C@H]2O)c(=O)[nH]1

>  <Experimental result>
7.00

$$$$
>  <Molecule>
Nc1nc2c(ncn2[C@@H]2O[C@H](COP(=O)(O)O)[C@@H](O)[C@H]2O)c(=O)[nH]1 [GMP, guanosine 5′-monophosphate, reference compound]

>  <Experimental result>
6.50

$$$$

# evaluate next
Q: # lookup: Bitter, average intensity score of Nc1ncnc2nc[nH]c12 [Adenine, adenine, reference compound]
Ans: 6.33
